A collection of compounds and their measured TGI
System: SNB-75 CNS
Test: NCI tumour cell line growth inhibition, 48 h

>>> assay_value("CCOC1CN(C)C(=Nc2cccc3ccccc23)S1 (stereo unspecified)")
"> 10 µM"

# input compound: C/C(=N\N(C)C)C(CN1CCCCC1)C(c1ccccc1)c1c(O)c2ccccc2oc1=O (stereo unspecified) ; wanted: its TGI
> 100 µM

# input compound: O=c1c2sc3nc(NCCN4CCCCC4)ncc3c2ncn1-c1ccccc1 ; wanted: its TGI
> 100 µM

# input compound: CCN(CC)c1ccc(N=O)cc1 ; wanted: its TGI
16.9 µM

# input compound: COC(=O)/C=C\n1ncc(=O)[nH]c1=O ; wanted: its TGI
> 100 µM

# input compound: Nc1nc(N)nc(-c2ccccc2NS(=O)(=O)c2ccc([N+](=O)[O-])cc2)n1 ; wanted: its TGI
> 90.6 µM
